inhibition at 1.1 µM reference
target: Human PI3K beta (Homo sapiens, UniProt P42338); construct: His (N); host or cells: SF9 insect cells (baculovirus); test: Human PI3K beta enzyme assay (HTRF); format: biochemical; conditions: concentration not given; b1387 states 1.1 μM for PI3K α and β; read-out: p110 beta Percent Inhibition
Sequence (P42338 whole entry): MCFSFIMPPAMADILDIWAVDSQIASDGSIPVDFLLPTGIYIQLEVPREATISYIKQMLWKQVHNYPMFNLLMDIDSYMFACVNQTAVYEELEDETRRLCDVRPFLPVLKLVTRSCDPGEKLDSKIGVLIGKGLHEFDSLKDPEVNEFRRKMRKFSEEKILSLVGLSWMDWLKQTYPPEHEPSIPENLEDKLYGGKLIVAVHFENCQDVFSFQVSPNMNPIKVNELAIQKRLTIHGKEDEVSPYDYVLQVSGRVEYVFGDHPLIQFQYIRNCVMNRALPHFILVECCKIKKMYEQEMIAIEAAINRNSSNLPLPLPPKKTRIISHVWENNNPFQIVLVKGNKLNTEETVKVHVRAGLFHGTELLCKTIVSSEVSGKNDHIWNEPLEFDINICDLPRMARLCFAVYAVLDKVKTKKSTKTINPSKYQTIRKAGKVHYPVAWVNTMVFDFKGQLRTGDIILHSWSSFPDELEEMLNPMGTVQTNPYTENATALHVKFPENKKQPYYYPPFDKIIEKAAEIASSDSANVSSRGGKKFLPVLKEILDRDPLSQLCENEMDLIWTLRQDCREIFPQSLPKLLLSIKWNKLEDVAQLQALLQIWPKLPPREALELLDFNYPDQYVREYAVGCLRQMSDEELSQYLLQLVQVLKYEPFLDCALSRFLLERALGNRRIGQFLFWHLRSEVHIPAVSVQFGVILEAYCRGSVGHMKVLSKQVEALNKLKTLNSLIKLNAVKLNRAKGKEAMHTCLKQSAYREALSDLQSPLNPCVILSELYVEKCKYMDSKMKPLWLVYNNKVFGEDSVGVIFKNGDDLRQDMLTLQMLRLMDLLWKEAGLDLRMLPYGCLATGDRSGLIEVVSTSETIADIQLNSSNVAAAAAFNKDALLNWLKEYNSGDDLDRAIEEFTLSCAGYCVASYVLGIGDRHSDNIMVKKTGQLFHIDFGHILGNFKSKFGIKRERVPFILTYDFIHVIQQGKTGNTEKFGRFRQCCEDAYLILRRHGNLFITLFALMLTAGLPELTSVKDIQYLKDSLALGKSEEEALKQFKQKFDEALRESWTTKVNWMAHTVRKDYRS
Sequence (P27986 whole entry partner): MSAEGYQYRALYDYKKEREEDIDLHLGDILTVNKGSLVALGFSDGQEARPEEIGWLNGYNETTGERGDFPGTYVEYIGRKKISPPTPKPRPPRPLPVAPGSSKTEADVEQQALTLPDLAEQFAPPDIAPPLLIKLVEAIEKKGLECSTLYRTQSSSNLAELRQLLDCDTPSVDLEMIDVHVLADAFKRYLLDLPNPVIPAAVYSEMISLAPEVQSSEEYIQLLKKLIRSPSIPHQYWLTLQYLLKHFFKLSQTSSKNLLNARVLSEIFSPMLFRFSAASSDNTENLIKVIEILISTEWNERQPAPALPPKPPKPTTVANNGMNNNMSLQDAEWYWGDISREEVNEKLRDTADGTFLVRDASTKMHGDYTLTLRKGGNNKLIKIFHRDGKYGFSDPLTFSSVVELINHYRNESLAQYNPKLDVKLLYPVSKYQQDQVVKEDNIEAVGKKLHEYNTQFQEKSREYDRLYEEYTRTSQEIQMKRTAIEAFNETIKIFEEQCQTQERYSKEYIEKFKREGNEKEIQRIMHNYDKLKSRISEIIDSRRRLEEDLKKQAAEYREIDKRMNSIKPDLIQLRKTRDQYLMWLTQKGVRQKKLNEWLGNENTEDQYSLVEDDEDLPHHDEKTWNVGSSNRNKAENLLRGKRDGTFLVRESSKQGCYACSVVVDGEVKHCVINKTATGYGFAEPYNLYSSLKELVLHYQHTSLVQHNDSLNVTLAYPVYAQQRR
Lab book: enter the figure in %, no units written.

Below, each entry is followed by its recorded inhibition at 1.1 µM result.
CC(=O)Nc1cc(-c2cc(C(c3ccc(Cl)cc3)N3CC[C@H](CO)C3)c(-c3nnc[nH]3)s2)ccn1 (stereo partly shown)	100
N#Cc1c(-c2ccnnc2)sc(-c2nnc[nH]2)c1C(c1ccc2ccccc2c1)N1CCNCC1 (stereo not shown)	101

Query (compound): OC(c1ccc2ccccc2n1)c1cc(-c2ccncc2)sc1-c1nnc[nH]1 (stereo not shown) ; field requested: inhibition at 1.1 µM
106

I have this compound here, CC(=O)Nc1cc(-c2cc(C(c3ccc(Cl)cc3)N3CC(N(C)C)C3)c(-c3nnc[nH]3)s2)ccn1 (stereo not shown) , and I need its recorded inhibition at 1.1 µM.
94

Given the compound COc1ccc(C(O)c2cc(-c3ccncc3)sc2-c2nnc[nH]2)c(C)c1 (stereo not shown) , what is its reported inhibition at 1.1 µM?
94

Item CN(C)CCC(c1ccc(Cl)c(Cl)c1)c1c(C(=O)O)sc(N2CCOCC2)c1C#N (stereo not shown) has what recorded inhibition at 1.1 µM?
105

# query: inhibition at 1.1 µM of entry CC(=O)Nc1cc(-c2cc(C(O)(C3=CCOCC3)c3ccc(Cl)cc3)c(-c3nnc[nH]3)s2)ccn1 (stereo not shown)
73

Look at this compound and give its reported inhibition at 1.1 µM. `O=C(O)c1sc(N2CCOCC2)nc1Cc1cc2ccccc2s1`
92

inhibition at 1.1 µM lookup needed for `N#Cc1c(N2CCOCC2)sc(C(=O)O)c1Cc1cc2cc(F)ccc2[nH]1` , thanks.
105

What inhibition at 1.1 µM value was documented for this compound, CC(=O)Nc1cc(-c2cc(C(OC[C@@H]3CCCN3)c3ccc(Cl)cc3)c(-c3nnc[nH]3)s2)ccn1 (stereo partly shown) ?
104

Quick one: inhibition at 1.1 µM for COc1cc(C(O)c2cc(-c3ccnnc3)sc2-c2nnc[nH]2)c(F)cc1Cl (stereo not shown) ?
99

Item OC(c1cccc(C(F)(F)F)c1)c1cc(-c2ccncc2)sc1-c1nnc[nH]1 (stereo not shown) has what recorded inhibition at 1.1 µM?
61

Name the recorded inhibition at 1.1 µM for CC(=O)Nc1cc(-c2cc(C(NCC3CNC3)c3ccc(Cl)cc3)c(-c3nnc[nH]3)s2)ccn1 (stereo not shown) .
106

Entry under review: COc1ccc(C(O)c2cc(-c3ccncc3)sc2-c2nnc[nH]2)cc1C (stereo not shown) . Reported inhibition at 1.1 µM?
80

For the compound `Cc1n[nH]c(C)c1-c1sc(-c2ccncc2)nc1Cc1ccc(Cl)cc1` , what inhibition at 1.1 µM is on record?
16

Given the entry `N#Cc1c(N2CCOCC2)sc(C(=O)O)c1Cn1cnc2ccccc2c1=O` , report its measured inhibition at 1.1 µM.
94

###

Entries and their inhibition at 1 µM values follow.
target: Human VPS34 (Homo sapiens); construct: GST (with thrombin site, pDEST20-Thrombin) (N); host or cells: SF9 insect cells (baculovirus); assay: Human VPS34 enzyme assay (Adapta Universal Kinase Assay); type: biochemical; conditions: at a 1.0 μM concentration; read-out: VPS34 Percent Inhibition
Sequence (Q8NEB9 whole entry): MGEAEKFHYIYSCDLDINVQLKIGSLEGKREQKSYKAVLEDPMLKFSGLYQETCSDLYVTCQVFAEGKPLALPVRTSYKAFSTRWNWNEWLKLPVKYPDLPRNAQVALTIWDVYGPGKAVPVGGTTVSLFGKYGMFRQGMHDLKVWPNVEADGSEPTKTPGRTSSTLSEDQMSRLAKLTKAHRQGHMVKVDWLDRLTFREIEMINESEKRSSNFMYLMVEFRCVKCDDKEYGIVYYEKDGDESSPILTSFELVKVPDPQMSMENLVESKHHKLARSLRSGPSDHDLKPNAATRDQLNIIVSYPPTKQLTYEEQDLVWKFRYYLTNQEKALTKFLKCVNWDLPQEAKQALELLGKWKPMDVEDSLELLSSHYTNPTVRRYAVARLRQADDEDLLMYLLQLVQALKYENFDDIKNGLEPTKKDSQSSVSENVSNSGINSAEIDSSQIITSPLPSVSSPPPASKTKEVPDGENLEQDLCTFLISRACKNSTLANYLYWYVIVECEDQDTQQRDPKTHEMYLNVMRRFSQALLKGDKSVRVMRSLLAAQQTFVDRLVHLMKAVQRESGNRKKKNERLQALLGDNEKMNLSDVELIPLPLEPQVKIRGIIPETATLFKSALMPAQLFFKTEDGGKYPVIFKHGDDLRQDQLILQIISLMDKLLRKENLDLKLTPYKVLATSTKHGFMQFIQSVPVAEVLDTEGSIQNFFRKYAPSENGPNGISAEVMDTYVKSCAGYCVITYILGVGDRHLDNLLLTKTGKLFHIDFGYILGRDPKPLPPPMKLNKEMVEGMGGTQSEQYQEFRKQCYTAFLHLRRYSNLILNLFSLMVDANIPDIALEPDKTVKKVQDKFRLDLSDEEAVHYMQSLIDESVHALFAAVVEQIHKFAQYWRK
Provide the reading as a plain figure in %.

The cases that follow already have their inhibition at 1 µM on record.
O=C(O)c1sc(N2CCOCC2)nc1Cc1ccc(Cl)cc1Cl [Compound 104]	63.2
COc1ccc(Cc2nc(N3CCOCC3)sc2C(=O)O)cc1 [Compound 103]	7.2
COc1cc(Cc2c(C(=O)O)sc(N3CCOCC3)c2C#N)ccc1Cl [Compound 122]	55.2

For the molecule N#Cc1c(N2CCOCC2)sc(C(=O)O)c1Cc1c(F)cc(Cl)cc1F [Compound 126] , what inhibition at 1 µM is on record?
44

Value lookup for inhibition at 1 µM; key = N#Cc1c(N2CCOCC2)sc(C(=O)O)c1Cc1ccc(Cl)cc1F [Compound 123]
45.1

Which inhibition at 1 µM value belongs to COc1ccc(Cc2nc(N3CCOCC3)sc2C(=O)O)c(Cl)c1 [Compound 120] ?
38.3

Bench note: what inhibition at 1 µM did CC(c1ccc(Cl)cc1)c1nc(N2CCOCC2)sc1C(=O)O (stereo not drawn) [Compound 121] show?
64.8

I have this molecule here, COc1ccc(Cc2c(C(=O)O)sc(N3CCOCC3)c2C#N)cc1 [Compound 105] , and I need its recorded inhibition at 1 µM.
22.6

Please look up its inhibition at 1 µM: N#Cc1c(N2CCOCC2)sc(C(=O)O)c1Cc1ccc(Cl)c(F)c1 [Compound 94]
30.6

###

Target: Human PI3K delta (Homo sapiens)
Construct: His (N); host or cells: SF9 insect cells (baculovirus)
Sequence (O00329 whole entry): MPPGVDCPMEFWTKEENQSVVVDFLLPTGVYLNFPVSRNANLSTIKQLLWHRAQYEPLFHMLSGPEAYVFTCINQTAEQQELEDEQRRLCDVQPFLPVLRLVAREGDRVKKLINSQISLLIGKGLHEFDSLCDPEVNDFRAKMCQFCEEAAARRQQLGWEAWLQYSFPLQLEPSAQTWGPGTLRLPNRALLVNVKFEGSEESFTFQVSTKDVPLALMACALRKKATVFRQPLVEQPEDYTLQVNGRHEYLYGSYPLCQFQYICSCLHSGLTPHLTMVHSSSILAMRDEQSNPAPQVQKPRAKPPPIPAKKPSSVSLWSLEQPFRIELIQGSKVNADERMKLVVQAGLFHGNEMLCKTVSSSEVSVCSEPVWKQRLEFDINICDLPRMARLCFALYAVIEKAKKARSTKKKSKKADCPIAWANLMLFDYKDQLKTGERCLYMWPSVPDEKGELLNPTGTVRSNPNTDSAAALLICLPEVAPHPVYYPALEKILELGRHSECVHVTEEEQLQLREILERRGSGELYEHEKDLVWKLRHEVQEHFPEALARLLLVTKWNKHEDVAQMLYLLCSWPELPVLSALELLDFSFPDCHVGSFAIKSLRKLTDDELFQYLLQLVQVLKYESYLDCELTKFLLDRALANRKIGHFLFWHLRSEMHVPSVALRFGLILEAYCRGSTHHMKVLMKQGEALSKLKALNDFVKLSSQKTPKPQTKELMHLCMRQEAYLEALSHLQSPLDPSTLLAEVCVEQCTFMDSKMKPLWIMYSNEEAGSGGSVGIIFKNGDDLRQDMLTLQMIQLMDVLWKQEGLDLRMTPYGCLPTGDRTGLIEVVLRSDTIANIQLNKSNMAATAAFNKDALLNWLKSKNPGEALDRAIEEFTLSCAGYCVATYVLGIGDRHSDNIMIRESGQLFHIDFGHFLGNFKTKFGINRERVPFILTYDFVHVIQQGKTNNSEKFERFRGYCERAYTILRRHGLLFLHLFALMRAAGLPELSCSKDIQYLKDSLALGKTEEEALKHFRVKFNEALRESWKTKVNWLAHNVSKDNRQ
Sequence (P27986 whole entry partner): as the sequence (P27986 whole entry partner) above
Assay: Human PI3K delta enzyme assay (HTRF)
Type: biochemical
Conditions: concentration not given; b1389 states 1.0 μM for PI3K δ and γ; read-out: p110 delta Percent Inhibition
Procedure: The catalytic subunits of PI3Ks are cloned into either pDEST8(p110 alpha) or pDEST10(p110beta, p110delta, and p110gamma) as N-terminal His tagged fusion proteins using the Gateway system (Invitrogen, catalog#11804-010 for pDEST8 and 11806-015 for pDEST10). […] For the assay methods described above, test compound percent inhibition, at various concentrations, is calculated relative to control (DMSO and EDTA) treated samples. […]
outcome_measure: inhibition at 1 µM (%)
Write it as a number; the unit % goes unstated.

CC(=O)Nc1cc(-c2cc(C(c3ccc(Cl)cc3)N3CCN(C(C)=O)CC3)c(-c3nnc[nH]3)s2)ccn1 (centres unmarked)	105
COc1ccc(C(O)c2cc(-c3ccncc3)sc2-c2nnc[nH]2)cc1C (centres unmarked)	54
O=C(O)c1sc(N2CCOCC2)nc1Cc1cc2ccccc2cc1F	104
OC(c1cc(F)ccc1F)c1cc(-c2ccncc2)sc1-c1nnc[nH]1 (centres unmarked)	52
N#Cc1c(N2CCOCC2)sc(C(=O)O)c1C(CCO)c1ccc2ccccc2c1 (centres unmarked)	86

Let us move to another entry and its inhibition at 1 µM.
What measured inhibition at 1 µM goes with COc1ccc(C(O)c2cc(-c3ccncc3)sc2-c2nnc[nH]2)cn1 (centres unmarked) ?
70

###

target: Human PI3K gamma (Homo sapiens, UniProt P48736); construct: His (N); host or cells: SF9 insect cells (baculovirus); assay: Human PI3K gamma enzyme assay (HTRF); format: biochemical; conditions: concentration not given; b1389 states 1.0 μM for PI3K δ and γ; read-out: p110 gamma Percent Inhibition
Sequence (P48736 whole entry): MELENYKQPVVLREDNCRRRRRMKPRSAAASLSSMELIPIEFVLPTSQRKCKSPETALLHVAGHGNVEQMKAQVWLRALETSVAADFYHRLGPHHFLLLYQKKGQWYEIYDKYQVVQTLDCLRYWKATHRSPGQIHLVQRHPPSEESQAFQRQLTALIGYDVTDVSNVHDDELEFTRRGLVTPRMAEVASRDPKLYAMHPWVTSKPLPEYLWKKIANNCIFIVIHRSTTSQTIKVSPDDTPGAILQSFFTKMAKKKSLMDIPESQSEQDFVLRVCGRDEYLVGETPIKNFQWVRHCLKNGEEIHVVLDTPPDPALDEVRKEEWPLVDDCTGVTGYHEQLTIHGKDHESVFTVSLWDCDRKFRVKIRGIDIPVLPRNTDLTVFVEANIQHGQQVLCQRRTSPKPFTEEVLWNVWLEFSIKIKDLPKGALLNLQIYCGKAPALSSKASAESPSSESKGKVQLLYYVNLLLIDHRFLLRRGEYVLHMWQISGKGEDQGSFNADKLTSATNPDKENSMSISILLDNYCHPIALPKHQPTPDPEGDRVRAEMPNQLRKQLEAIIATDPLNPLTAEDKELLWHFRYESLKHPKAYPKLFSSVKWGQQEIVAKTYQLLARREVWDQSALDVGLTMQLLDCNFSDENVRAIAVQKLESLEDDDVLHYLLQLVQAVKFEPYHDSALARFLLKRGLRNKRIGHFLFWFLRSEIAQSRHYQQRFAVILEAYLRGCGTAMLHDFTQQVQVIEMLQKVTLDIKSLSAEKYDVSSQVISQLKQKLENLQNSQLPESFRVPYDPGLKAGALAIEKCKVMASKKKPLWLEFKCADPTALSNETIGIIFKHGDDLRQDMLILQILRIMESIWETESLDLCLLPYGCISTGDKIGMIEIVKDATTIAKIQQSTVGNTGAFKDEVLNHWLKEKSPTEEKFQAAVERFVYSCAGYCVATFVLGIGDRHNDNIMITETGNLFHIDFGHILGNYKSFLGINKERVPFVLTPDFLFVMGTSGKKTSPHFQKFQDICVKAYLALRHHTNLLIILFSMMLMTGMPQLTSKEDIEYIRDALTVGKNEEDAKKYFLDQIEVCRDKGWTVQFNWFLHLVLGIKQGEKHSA
inhibition at 1 µM reference
Report as a plain number; the unit % is understood.

CS(=O)(=O)NC(=O)c1sc(N2CCOCC2)c(C#N)c1Cc1ccc(Cl)c(Cl)c1 [Compound 352]	14
CC(=O)Nc1cc(-c2cc(C(OC[C@@H]3CCCN3)c3ccc(Cl)cc3)c(-c3nnc[nH]3)s2)ccn1 (stereo partly shown) [Compound 242]	36

Item under review: Cn1c(Cc2c(C(=O)O)sc(N3CCOCC3)c2C#N)cc2ccccc21 [Compound 330] . Reported inhibition at 1 µM?
61

Can you share its inhibition at 1 µM? I mean this compound: O=C(O)c1sc(N2CCOCC2)nc1Cc1ccc2ccccc2c1F [Compound 319]
50

###

Below, each entry is listed with its recorded inhibition at 1 µM.
molecular target: Human PI3K gamma (Homo sapiens, UniProt P48736); construct: His (N); host or cells: SF9 insect cells (baculovirus); assay: Human PI3K gamma enzyme assay (HTRF); assay type: biochemical; conditions: concentration not given; b1389 states 1.0 μM for PI3K δ and γ; read-out: p110 gamma Percent Inhibition

OC(c1cnc2ccccc2c1)c1cc(-c2ccncc2)sc1-c1nnc[nH]1 (stereo not drawn) [Compound 132]	53%

Notebook: pull reported inhibition at 1 µM for Human PI3K gamma (Homo sapiens, UniProt P48736), entry OC(c1ccccc1-c1cccnc1)c1cc(-c2ccncc2)sc1-c1nnc[nH]1 (stereo not drawn) [Compound 276]
6%

Param readout= inhibition at 1 µM; system= Human PI3K gamma (Homo sapiens, UniProt P48736); entry= O=C(O)c1sc(N2CCOCC2)nc1Cc1ccc2ccc(F)cc2c1 [Compound 310] ; returns value.
64%

Report inhibition at 1 µM for NC(=O)c1ccc2ccc(Cc3nc(N4CCOCC4)sc3C(=O)O)cc2c1 [Compound 318] tested on Human PI3K gamma (Homo sapiens, UniProt P48736).
14%

Hi! What's the reported inhibition at 1 µM for CC(=O)Nc1cc(-c2cc(C(NCC3CNC3)c3ccc(Cl)cc3)c(-c3nnc[nH]3)s2)ccn1 (stereo not drawn) [Compound 129] on Human PI3K gamma (Homo sapiens, UniProt P48736)?
32%

Can you look up inhibition at 1 µM on Human PI3K gamma (Homo sapiens, UniProt P48736) for CC(=O)Nc1cc(-c2cc(C(c3ccc(Cl)cc3)N(C)C3CCNCC3)c(-c3nnc[nH]3)s2)ccn1 (stereo not drawn) [Compound 222] ?
9%
